biological target: UniProtKB Q9UKE5; assay: KINOMEscan competition binding; conditions: compound 10.0 µM
Sequence (Q9UKE5 whole entry, looked up): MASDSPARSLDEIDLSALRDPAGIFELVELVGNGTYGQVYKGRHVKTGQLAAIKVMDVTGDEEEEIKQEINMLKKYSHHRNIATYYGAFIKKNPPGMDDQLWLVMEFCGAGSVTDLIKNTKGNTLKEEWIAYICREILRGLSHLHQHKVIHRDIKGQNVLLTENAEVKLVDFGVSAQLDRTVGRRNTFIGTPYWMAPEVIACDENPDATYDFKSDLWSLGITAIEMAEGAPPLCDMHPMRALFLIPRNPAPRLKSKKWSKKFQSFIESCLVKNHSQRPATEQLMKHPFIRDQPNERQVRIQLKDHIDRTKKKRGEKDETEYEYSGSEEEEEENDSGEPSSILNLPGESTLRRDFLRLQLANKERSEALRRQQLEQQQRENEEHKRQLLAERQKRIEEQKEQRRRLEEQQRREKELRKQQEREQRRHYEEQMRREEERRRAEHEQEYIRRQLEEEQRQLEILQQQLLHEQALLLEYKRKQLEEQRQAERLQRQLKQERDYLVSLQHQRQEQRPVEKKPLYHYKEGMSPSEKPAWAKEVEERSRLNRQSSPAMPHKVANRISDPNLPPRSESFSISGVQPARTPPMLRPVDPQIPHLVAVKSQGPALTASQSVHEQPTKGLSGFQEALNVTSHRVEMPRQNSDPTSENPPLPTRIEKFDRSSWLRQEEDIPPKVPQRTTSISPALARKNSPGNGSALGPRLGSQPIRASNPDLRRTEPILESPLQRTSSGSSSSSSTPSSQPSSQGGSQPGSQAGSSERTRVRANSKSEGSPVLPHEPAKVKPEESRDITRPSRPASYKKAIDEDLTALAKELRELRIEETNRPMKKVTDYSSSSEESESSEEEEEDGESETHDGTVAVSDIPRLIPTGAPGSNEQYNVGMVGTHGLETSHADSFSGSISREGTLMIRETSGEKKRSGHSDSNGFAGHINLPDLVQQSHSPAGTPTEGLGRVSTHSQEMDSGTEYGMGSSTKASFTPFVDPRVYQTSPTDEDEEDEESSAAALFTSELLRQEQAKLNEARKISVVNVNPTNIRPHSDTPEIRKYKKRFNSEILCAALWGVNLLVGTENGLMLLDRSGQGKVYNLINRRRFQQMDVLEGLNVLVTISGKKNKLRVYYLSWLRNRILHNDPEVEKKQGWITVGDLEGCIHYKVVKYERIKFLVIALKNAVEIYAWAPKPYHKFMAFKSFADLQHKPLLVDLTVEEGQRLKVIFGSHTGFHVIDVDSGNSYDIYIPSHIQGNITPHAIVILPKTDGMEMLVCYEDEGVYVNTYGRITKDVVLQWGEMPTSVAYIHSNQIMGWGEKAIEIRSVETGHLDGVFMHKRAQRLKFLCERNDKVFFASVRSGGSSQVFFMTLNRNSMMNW
// classify: if (kinase still bound, per cent of control < 40%) Y else N

Solved entries (count: 6):
smiles.representation	target.under.test	class.name
NC(=O)Nc1cc(-c2cccc(F)c2)sc1C(=O)N[C@@H]1CCCNC1	UniProtKB Q9UKE5	Y
CCN1CCN(C(=O)Cc2ccc(Nc3ncc(F)c(Nc4ccc(C(=O)Nc5ccccc5Cl)cc4)n3)cc2)CC1	UniProtKB Q9UKE5	N
CCN(CC)CCCCNc1ncc2cc(-c3cc(OC)cc(OC)c3)c(NC(=O)NC(C)(C)C)nc2n1	UniProtKB Q9UKE5	N
C=CC(=O)Nc1cc(-n2c(=O)ccc3cnc4ccc(-c5cn[nH]c5)cc4c32)ccc1C	UniProtKB Q9UKE5	N
CCN(CC)CCCCNc1ncc2c(n1)N(C)C(=O)N(c1c(Cl)c(OC)cc(OC)c1Cl)C2	UniProtKB Q9UKE5	N
CNC(=O)c1cc(Oc2ccc(NC(=O)Nc3ccc(Cl)c(C(F)(F)F)c3)cc2)ccn1	UniProtKB Q9UKE5	Y

# input # strict comparison: is reported kinase still bound, per cent of control < 40%? input = "C=CC(=O)Nc1ccc(CN(C(=O)Nc2c(Cl)c(OC)cc(OC)c2Cl)c2cc(Nc3ccc(N4CCN(C)CC4)cc3)ncn2)cc1"
# output N

# input Lab note: confirm whether the reported kinase still bound, per cent of control for this compound is below 40%, equality not counting. compound: "COc1ccc(N(C(=O)Oc2c(C)cccc2C)c2ccnc(Nc3ccc(N4CCN(C)CC4)cc3)n2)c(OC)c1"
# output Y

# input # TODO verify kinase still bound, per cent of control < 40% strictly for this compound: "COc1cc2ncn(-c3cc(OCc4ccccc4C(F)(F)F)c(C(N)=O)s3)c2cc1OC"
# output Y

----------
target: STK17A (human) (UniProt Q9UEE5); experiment: KINOMEscan competition binding; settings: compound 10.0 µM
Sequence (Q9UEE5 whole entry, looked up): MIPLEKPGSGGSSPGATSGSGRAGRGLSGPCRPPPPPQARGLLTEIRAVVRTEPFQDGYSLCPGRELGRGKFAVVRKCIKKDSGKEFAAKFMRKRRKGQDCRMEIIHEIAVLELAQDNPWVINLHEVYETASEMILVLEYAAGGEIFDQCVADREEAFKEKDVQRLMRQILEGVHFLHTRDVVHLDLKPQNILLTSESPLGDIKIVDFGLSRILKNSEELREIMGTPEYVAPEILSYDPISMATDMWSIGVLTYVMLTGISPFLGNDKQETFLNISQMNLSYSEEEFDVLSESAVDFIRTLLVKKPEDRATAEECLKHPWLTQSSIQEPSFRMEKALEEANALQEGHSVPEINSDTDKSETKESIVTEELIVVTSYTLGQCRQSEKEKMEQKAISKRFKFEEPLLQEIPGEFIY
For each record, write down the corresponding kinase still bound, per cent of control.
Give bare numbers, in %.

Example molecules with recorded kinase still bound, per cent of control:
smiles.representation	kinase still bound, per cent of control, %
Cc1n[nH]c2ccc(-c3cncc(OC[C@@H](N)Cc4c[nH]c5ccccc45)c3)cc12	5.4
COc1ccc(N(C(=O)Oc2c(C)cccc2C)c2ccnc(Nc3ccc(N4CCN(C)CC4)cc3)n2)c(OC)c1	100
C=CC(=O)Nc1ccc(CN(C(=O)Nc2c(Cl)c(OC)cc(OC)c2Cl)c2cc(Nc3ccc(N4CCN(C)CC4)cc3)ncn2)cc1	100
COc1cc2ncnc(-n3nc(-c4ccccn4)nc3N)c2cc1OC	1.6

The reported value for "O=c1cc(N2CCOCC2)oc2c(-c3cccc4c3sc3ccccc34)cccc12" in terms of kinase still bound, per cent of control is 95

----------
Consider the following molecules; for each one, report its kinase still bound, per cent of control.
biological target: UniProt Q92630; test: KINOMEscan competition binding; conditions: compound 10.0 µM
Sequence (Q92630 whole entry, looked up): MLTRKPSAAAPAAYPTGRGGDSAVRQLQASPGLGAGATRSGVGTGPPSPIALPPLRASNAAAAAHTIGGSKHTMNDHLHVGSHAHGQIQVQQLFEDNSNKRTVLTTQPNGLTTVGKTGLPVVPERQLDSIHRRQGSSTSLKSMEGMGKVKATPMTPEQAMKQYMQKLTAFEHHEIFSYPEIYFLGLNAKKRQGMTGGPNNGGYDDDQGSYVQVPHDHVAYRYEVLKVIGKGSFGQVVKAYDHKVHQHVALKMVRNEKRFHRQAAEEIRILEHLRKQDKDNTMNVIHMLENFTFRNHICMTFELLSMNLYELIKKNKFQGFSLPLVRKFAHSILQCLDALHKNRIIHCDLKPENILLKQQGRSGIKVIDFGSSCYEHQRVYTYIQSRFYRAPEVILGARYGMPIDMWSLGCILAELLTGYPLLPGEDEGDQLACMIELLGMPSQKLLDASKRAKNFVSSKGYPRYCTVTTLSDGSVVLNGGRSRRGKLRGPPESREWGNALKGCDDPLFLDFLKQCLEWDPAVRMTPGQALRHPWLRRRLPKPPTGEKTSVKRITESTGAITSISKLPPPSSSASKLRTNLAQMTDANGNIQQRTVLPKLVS
Respond with a number, then the unit of measure.

Answered cases to consult:
smiles.representation	kinase still bound, per cent of control
CN(C)C/C=C/C(=O)Nc1ccc(C(=O)Nc2cccc(Nc3nccc(-c4cccnc4)n3)c2)cc1	29%
COc1cc(N2CCN(C)CC2)ccc1Nc1ncc2c(n1)N(C)c1ccccc1C(=O)N2C	100%
CS(=O)(=O)N1CCN(Cc2cc3nc(-c4cccc5[nH]ncc45)nc(N4CCOCC4)c3s2)CC1	100%
O=c1cc(N2CCOCC2)oc2c(-c3cccc4c3sc3ccccc34)cccc12	100%

Now look at this entry.
Summary for this molecule, "COc1cc(C(=O)N2CCC(N3CCN(C)CC3)CC2)ccc1Nc1ncc2c(n1)N(C)c1ccccc1C(=O)N2C" : kinase still bound, per cent of control is 76%

----------
molecular target: TYK2 JH2 pseudokinase (human) (UniProt P29597); test: KINOMEscan competition binding; conditions: compound 10.0 µM
Sequence (P29597 whole entry, looked up): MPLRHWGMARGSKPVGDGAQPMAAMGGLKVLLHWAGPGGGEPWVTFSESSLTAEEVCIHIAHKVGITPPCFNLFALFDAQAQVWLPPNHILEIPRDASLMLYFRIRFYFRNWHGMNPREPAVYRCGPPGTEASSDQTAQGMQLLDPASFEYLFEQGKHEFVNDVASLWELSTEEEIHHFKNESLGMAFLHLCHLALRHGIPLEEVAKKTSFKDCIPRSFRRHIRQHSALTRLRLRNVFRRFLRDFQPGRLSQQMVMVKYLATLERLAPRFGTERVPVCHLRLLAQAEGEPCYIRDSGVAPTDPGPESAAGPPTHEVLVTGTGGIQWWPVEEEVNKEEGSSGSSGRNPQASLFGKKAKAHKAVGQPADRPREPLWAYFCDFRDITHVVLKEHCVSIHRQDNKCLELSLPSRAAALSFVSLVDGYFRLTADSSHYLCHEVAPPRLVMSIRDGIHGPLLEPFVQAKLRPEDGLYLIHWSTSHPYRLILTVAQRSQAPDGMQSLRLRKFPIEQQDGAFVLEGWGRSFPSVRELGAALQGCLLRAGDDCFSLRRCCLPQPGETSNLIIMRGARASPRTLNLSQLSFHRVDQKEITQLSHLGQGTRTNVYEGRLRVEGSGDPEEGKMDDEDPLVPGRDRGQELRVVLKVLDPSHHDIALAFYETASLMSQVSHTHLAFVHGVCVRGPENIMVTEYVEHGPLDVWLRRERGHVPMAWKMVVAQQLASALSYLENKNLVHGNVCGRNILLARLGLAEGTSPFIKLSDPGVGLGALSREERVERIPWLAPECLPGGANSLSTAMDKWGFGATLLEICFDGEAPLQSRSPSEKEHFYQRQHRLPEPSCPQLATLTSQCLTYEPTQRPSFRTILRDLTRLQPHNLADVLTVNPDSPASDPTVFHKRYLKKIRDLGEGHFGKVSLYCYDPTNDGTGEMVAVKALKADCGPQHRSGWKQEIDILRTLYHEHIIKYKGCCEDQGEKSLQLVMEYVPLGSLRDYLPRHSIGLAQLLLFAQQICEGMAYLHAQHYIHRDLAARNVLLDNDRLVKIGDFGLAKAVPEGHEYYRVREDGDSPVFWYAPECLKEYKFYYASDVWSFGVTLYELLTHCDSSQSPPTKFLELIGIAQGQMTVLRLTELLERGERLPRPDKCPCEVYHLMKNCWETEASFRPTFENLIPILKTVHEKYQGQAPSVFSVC
Would you kindly list kinase still bound, per cent of control for each of these molecules?
Give bare numbers, in %.

Example entries and their recorded answers appear below.
smiles.representation	kinase still bound, per cent of control / %
Cc1n[nH]c2ccc(-c3cncc(OC[C@@H](N)Cc4c[nH]c5ccccc45)c3)cc12	100
COc1cc(N2CCN(C)CC2)ccc1Nc1ncc2c(n1)N(C)c1ccccc1C(=O)N2C	100
CN(C)C/C=C/C(=O)Nc1ccc(C(=O)Nc2cccc(Nc3nccc(-c4cccnc4)n3)c2)cc1	0.2
O=C(Nc1cccc(Nc2ncc(Br)c(NCCc3cnc[nH]3)n2)c1)N1CCCC1	0
N#CCNC(=O)c1ccc(-c2ccnc(Nc3ccc(N4CCOCC4)cc3)n2)cc1	100

Answer for every listed entry: what is its kinase still bound, per cent of control? The entries follow.
1. C[C@@H](Oc1cc(-c2cnn(C3CCNCC3)c2)cnc1N)c1c(Cl)ccc(F)c1Cl
2. CNC(=O)c1cc(Oc2ccc(NC(=O)Nc3ccc(Cl)c(C(F)(F)F)c3)cc2)ccn1
3. COCC(=O)NC/C=C/c1ccc2ncnc(Nc3ccc(Oc4ccc(C)nc4)c(C)c3)c2c1

# output
[2.3, 100, 24]

The reported kinase still bound, per cent of control of the molecule "O=c1cc(N2CCOCC2)oc2c(-c3cccc4c3sc3ccccc34)cccc12" was 100

----------
biological target: TNK2 (human); experiment: KINOMEscan competition binding; conditions: compound 10.0 µM
measure.name: kinase still bound, per cent of control (%)
Numbers only, in %.

Reference set, count: 3
smiles.representation	target.under.test	kinase still bound, per cent of control (%)
NC(=O)Nc1cc(-c2cccc(F)c2)sc1C(=O)N[C@@H]1CCCNC1	TNK2 (human)	0.85
COc1cc(C(=O)N2CCC(N3CCN(C)CC3)CC2)ccc1Nc1ncc2c(n1)N(C)c1ccccc1C(=O)N2C	TNK2 (human)	18
COc1cc2ncnc(-n3nc(-c4ccccn4)nc3N)c2cc1OC	TNK2 (human)	54

Alright, here's another compound for you.
Input "C[C@@H](Oc1cc(-c2cnn(C3CCNCC3)c2)cnc1N)c1c(Cl)ccc(F)c1Cl" . Output kinase still bound, per cent of control: 2.8

----------
I'd be grateful if you could share measured kinase still bound, per cent of control for these entries.
target: EPHA8 (human); test: KINOMEscan competition binding; conditions: compound 10.0 µM
One number for each entry, in %.

Known results for compounds:
smiles.representation	endpoint.unit	kinase still bound, per cent of control
COc1cc(C(=O)N2CCC(N3CCN(C)CC3)CC2)ccc1Nc1ncc2c(n1)N(C)c1ccccc1C(=O)N2C	%	80
C=CC(=O)Nc1ccc(CN(C(=O)Nc2c(Cl)c(OC)cc(OC)c2Cl)c2cc(Nc3ccc(N4CCN(C)CC4)cc3)ncn2)cc1	%	100
CCN1CCN(C(=O)Cc2ccc(Nc3ncc(F)c(Nc4ccc(C(=O)Nc5ccccc5Cl)cc4)n3)cc2)CC1	%	63
COCC(=O)NC/C=C/c1ccc2ncnc(Nc3ccc(Oc4ccc(C)nc4)c(C)c3)c2c1	%	98
O=c1cc(N2CCOCC2)oc2c(-c3cccc4c3sc3ccccc34)cccc12	%	82
CN(C)C/C=C/C(=O)Nc1ccc(C(=O)Nc2cccc(Nc3nccc(-c4cccnc4)n3)c2)cc1	%	91
CCN(CC)CCCCNc1ncc2cc(-c3cc(OC)cc(OC)c3)c(NC(=O)NC(C)(C)C)nc2n1	%	100

Alright, here's another compound for you.
Record "CCN(CC)CCCCNc1ncc2c(n1)N(C)C(=O)N(c1c(Cl)c(OC)cc(OC)c1Cl)C2" , field kinase still bound, per cent of control: 100

----------
For each record, write down the corresponding kinase still bound, per cent of control.
biological target: MAP2K2 (human) (UniProt P36507); test: KINOMEscan competition binding; details: compound 10.0 µM
Sequence (P36507 whole entry, looked up): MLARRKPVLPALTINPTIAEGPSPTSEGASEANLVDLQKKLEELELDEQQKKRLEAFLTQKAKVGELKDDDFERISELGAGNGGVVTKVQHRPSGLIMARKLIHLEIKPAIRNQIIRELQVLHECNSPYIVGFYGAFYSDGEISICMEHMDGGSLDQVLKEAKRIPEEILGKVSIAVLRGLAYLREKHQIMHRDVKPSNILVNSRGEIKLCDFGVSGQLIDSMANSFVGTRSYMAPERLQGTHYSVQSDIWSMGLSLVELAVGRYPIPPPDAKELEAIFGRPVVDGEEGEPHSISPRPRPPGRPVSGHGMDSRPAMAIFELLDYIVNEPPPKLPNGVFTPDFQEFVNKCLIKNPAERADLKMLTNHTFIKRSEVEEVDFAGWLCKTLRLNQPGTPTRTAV
Numbers only, in %.

smiles.representation	kinase still bound, per cent of control [%]
COc1cc(C(=O)N2CCC(N3CCN(C)CC3)CC2)ccc1Nc1ncc2c(n1)N(C)c1ccccc1C(=O)N2C	99
O=C(Nc1cccc(Nc2ncc(Br)c(NCCc3cnc[nH]3)n2)c1)N1CCCC1	0.2
N#CCNC(=O)c1ccc(-c2ccnc(Nc3ccc(N4CCOCC4)cc3)n2)cc1	100
CNC(=O)c1ccc(Nc2cc(Nc3ccccc3S(=O)(=O)C(C)C)c3cc[nH]c3n2)nc1	5.2

Switching to the query record.
response.value for "COCC(=O)NC/C=C/c1ccc2ncnc(Nc3ccc(Oc4ccc(C)nc4)c(C)c3)c2c1" (field: kinase still bound, per cent of control) = 11

----------
biological target: PRKX (human) (UniProt P51817); test: KINOMEscan competition binding; details: compound 10.0 µM
Sequence (P51817 whole entry, looked up): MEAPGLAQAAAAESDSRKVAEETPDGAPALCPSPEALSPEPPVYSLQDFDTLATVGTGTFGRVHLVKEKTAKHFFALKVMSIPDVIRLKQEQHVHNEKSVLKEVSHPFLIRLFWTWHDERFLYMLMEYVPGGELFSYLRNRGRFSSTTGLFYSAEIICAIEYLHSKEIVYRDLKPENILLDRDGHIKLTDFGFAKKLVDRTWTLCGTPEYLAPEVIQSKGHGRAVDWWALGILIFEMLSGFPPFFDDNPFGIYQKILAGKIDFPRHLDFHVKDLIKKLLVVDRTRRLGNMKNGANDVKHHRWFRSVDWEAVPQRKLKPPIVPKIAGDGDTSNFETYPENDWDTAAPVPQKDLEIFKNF
Provide the recorded kinase still bound, per cent of control for the entries that follow.
Numbers only, in %.

Here are 5 compounds together with their reported answers.
smiles.representation	target.under.test	kinase still bound, per cent of control / %
CCN(CC)CCCCNc1ncc2cc(-c3cc(OC)cc(OC)c3)c(NC(=O)NC(C)(C)C)nc2n1	PRKX (human) (UniProt P51817)	100
CCN(CC)CCCCNc1ncc2c(n1)N(C)C(=O)N(c1c(Cl)c(OC)cc(OC)c1Cl)C2	PRKX (human) (UniProt P51817)	100
O=C1NC(=O)/C(=C/c2ccc3nccc(-c4ccncc4)c3c2)S1	PRKX (human) (UniProt P51817)	19
CCN1CCN(C(=O)Cc2ccc(Nc3ncc(F)c(Nc4ccc(C(=O)Nc5ccccc5Cl)cc4)n3)cc2)CC1	PRKX (human) (UniProt P51817)	76
C=CC(=O)Nc1ccc(CN(C(=O)Nc2c(Cl)c(OC)cc(OC)c2Cl)c2cc(Nc3ccc(N4CCN(C)CC4)cc3)ncn2)cc1	PRKX (human) (UniProt P51817)	100

Would you mind giving kinase still bound, per cent of control for every compound in the list below?
1. COc1cc2ncn(-c3cc(OCc4ccccc4C(F)(F)F)c(C(N)=O)s3)c2cc1OC
2. CNC(=O)c1cc(Oc2ccc(NC(=O)Nc3ccc(Cl)c(C(F)(F)F)c3)cc2)ccn1
3. NC(=O)Nc1cc(-c2cccc(F)c2)sc1C(=O)N[C@@H]1CCCNC1
4. CS(=O)(=O)N1CCN(Cc2cc3nc(-c4cccc5[nH]ncc45)nc(N4CCOCC4)c3s2)CC1
5. CNC(=O)c1ccc(Nc2cc(Nc3ccccc3S(=O)(=O)C(C)C)c3cc[nH]c3n2)nc1
6. C=CC(=O)Nc1cc(-n2c(=O)ccc3cnc4ccc(-c5cn[nH]c5)cc4c32)ccc1C

# output
1. 98
2. 100
3. 0.7
4. 100
5. 100
6. 100

Hey, can you go through the list below and give me kinase still bound, per cent of control for every item?
1. O=C(Nc1cccc(Nc2ncc(Br)c(NCCc3cnc[nH]3)n2)c1)N1CCCC1
2. COc1cc(N2CCN(C)CC2)ccc1Nc1ncc2c(n1)N(C)c1ccccc1C(=O)N2C
3. CN(C)C/C=C/C(=O)Nc1ccc(C(=O)Nc2cccc(Nc3nccc(-c4cccnc4)n3)c2)cc1
4. N#CCNC(=O)c1ccc(-c2ccnc(Nc3ccc(N4CCOCC4)cc3)n2)cc1
5. Cc1n[nH]c2ccc(-c3cncc(OC[C@@H](N)Cc4c[nH]c5ccccc45)c3)cc12

# output
[0.2, 100, 100, 74, 12]

Below are some compounds; for each one, tell me its kinase still bound, per cent of control.
1. O=c1cc(N2CCOCC2)oc2c(-c3cccc4c3sc3ccccc34)cccc12
2. COc1cc2ncnc(-n3nc(-c4ccccn4)nc3N)c2cc1OC
3. C[C@@H](Oc1cc(-c2cnn(C3CCNCC3)c2)cnc1N)c1c(Cl)ccc(F)c1Cl
4. COCC(=O)NC/C=C/c1ccc2ncnc(Nc3ccc(Oc4ccc(C)nc4)c(C)c3)c2c1

# output
89
79
94
100

Give measured kinase still bound, per cent of control for every item shown.
1. COc1cc(C(=O)N2CCC(N3CCN(C)CC3)CC2)ccc1Nc1ncc2c(n1)N(C)c1ccccc1C(=O)N2C
2. COc1ccc(N(C(=O)Oc2c(C)cccc2C)c2ccnc(Nc3ccc(N4CCN(C)CC4)cc3)n2)c(OC)c1

# output
1. 99
2. 41
